Reported values of pIC50 for individual entries
# targetDesc: Platelet-derived growth factor receptor (Homo sapiens, UniProt P09619+P16234)
# procedureText: Inhibition of the platelet-derived growth factor receptor.
pIC50: −log10 of the molar value.
property: pIC50

compoundsmiles=O=C(Nc1cccc(Nc2nccc(-c3cccnc3)n2)c1)c1cccnc1 property=pIC50 resultvalue=4.30
compoundsmiles=FC(F)C(F)(F)Oc1cccc(Nc2nccc(-c3c[nH]c4ccccc34)n2)c1 property=pIC50 resultvalue="< 5.00"
compoundsmiles=NCCCn1ccc2c(-c3ccnc(Nc4cccc(OC(F)(F)C(F)F)c4)n3)cccc21 property=pIC50 resultvalue=5.30
compoundsmiles=COC(=O)c1cccc(Nc2nccc(-c3cccnc3)n2)c1 property=pIC50 resultvalue="< 5.00"
compoundsmiles=c1ccc(Nc2nccc(-c3cccnc3)n2)cc1 property=pIC50 resultvalue="< 5.00"
compoundsmiles=O=[N+]([O-])c1cccc(Nc2nccc(-c3ccncc3)n2)c1 property=pIC50 resultvalue="< 4.00"
compoundsmiles=O=C(O)c1cccc(Nc2nccc(-c3cccnc3)n2)c1 property=pIC50 resultvalue="< 5.00"
compoundsmiles=O=[N+]([O-])c1cccc(Nc2nccc(-c3ccccn3)n2)c1 property=pIC50 resultvalue="< 4.00"
compoundsmiles=Nc1cccc(Nc2nccc(-c3ccncc3)n2)c1 property=pIC50 resultvalue="< 5.00"
compoundsmiles=N#Cc1ccc(C(=O)Nc2cccc(Nc3nccc(-c4cccnc4)n3)c2)cc1 property=pIC50 resultvalue=5.82
compoundsmiles=CCCCCC(=O)Nc1cccc(Nc2nccc(-c3cccnc3)n2)c1 property=pIC50 resultvalue=6.22
